Tested on: CD2F1 mice, L1210 leukemia ip, survival T/C
Experiment: NCI In Vivo Anticancer Drug Screen. Data for tumor model L1210 Leukemia (intraperitoneal) in CD2F1 (CDF1) mice
Settings: endpoint: mean survival time; dose: 400.0 mg/kg/injection; schedule: Q04DX003 (ip); vehicle: saline with Tween-80; higher = longer survival
Toxic doses and inconclusive results are not listed.

| compound | T/C |
| --- | --- |
| Cc1oc([N+](=O)[O-])cc1C(=O)O | 115 % of control |
| CCOc1cccc(Cc2cn(Cc3ccccc3)c(=O)[nH]c2=O)c1 | 96 % of control |
| O=C(/C=C/c1ccncc1)c1ccccc1 | 95 % of control |
| CCCCCCCCCCCCCCCCCCC#N | 95 % of control |
| CN(C)/C=N/NC(=O)c1ccccc1O | 100 % of control |
| O=[N+]([O-])c1ccc2c(c1)CS(=O)(=O)C2 | 96 % of control |
| c1ccc(-c2nc3c(c(-c4ccccc4)n2)CCO3)cc1 | 90 % of control |
| O=C(/C(=N\Nc1ccc([N+](=O)[O-])cc1)c1ccccc1)c1ccccc1 | 101 % of control |
| O=C(O)c1ccc(S(=O)(=O)N(Cl)Cl)cc1 | 95 % of control |
| O=C(c1ccccc1)C1(Br)CCC1 | 100 % of control |
| O=C(O)c1ccccc1C(=O)Nc1ccccc1C(F)(F)F | 105 % of control |
| S=C1SCCN1C1CCCCC1 | 92 % of control |
| CC1(C)SC(C(NC(=O)Cc2ccccc2)C(=O)O)NC1C(=O)O (configuration not stated) | 95 % of control |
| CN(c1ccccc1Cl)S(C)(=O)=O | 90 % of control |
| O=C(O)COC(C[N+](=O)[O-])C(Cl)(Cl)Cl (configuration not stated) | 98 % of control |
| O=C1c2c(Cl)c(Cl)c(Cl)c(Cl)c2C(=O)N1O | 101 % of control |
| NC(=Nc1ccccc1)SCCS(=O)(=O)O | 104 % of control |
| Cc1ccc([N+](=O)[O-])c2ccccc12 | 94 % of control |
| C/C(=N/O)c1ccc(O)cc1 | 94 % of control |
| O=[N+]([O-])c1cc2nsnc2cc1[N+](=O)[O-] | 96 % of control |
| [Co+2].[NH-]c1ccccc1C(=O)O.[NH-]c1ccccc1C(=O)O | 91 % of control |
| Cc1ccc(NS(=O)(=O)c2ccccc2)c([N+](=O)[O-])c1 | 100 % of control |
| O=C(c1ccccc1)C(Br)C(C(=O)O)c1ccccc1 (configuration not stated) | 95 % of control |
| ClCc1ccc2ccccc2n1 | 101 % of control |
| O=C(c1ccc(Cl)cc1)C1CC(Br)C(Br)CC1C(=O)c1ccc(Cl)cc1 (configuration not stated) | 98 % of control |
| O=C(O)c1ccccc1CCl | 108 % of control |
| O=S(=O)(O)C(S(=O)(=O)O)S(=O)(=O)O | 93 % of control |
| O=C(Nc1ccc2c3c(cccc13)CC2)c1ccccc1 | 92 % of control |
| O=C(Nc1nc2ccccc2s1)c1cc2ccccc2cc1O | 91 % of control |
| O=Cc1cc2c(cc1Br)OCO2 | 98 % of control |
| COC1OC(COC(=O)c2ccccc2)C2OC(=O)OC12 (configuration not stated) | 102 % of control |
| CC(C)(C)OC(=O)NOC(=O)C(C)(C)C | 87 % of control |
